A collection of binders and their measured EC50
Study System: T1, MICA*004 expressed at the cell surface (human, UniProt Q29983 24-297)
T1 construct: also called C1R-MICA*004; C1R-MICA*04
T1 chain: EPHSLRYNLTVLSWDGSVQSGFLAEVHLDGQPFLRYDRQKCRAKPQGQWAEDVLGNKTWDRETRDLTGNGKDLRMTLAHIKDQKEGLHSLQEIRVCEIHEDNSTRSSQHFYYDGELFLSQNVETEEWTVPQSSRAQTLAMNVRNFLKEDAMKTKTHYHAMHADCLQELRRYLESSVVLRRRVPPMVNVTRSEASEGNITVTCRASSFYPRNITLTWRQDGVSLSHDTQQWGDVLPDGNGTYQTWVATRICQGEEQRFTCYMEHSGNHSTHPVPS
Assay Details: flow cytometry on C1R transfectant cells, 4-parameter logistic fit
Output should be the measured figure followed by the unit it is expressed in.

Use the examples below as a reference point.
>  <Binder>
CHG1-M-MIA-9C10 (antibody, human IgG1, V domains shown, also called chimeric anti-MICA 9C10) VH: QVQLQQPGAELVRPGTSVNLSCKASGYSFTRYWMNWVKQRPGQGLEWIGMIHPSDSETRLNQKFKDKATLTVDKSSSTAYMQLSSPTSEDSAVYYCGYGNFFYVMDYWGQGTSVTVSS VL: DILLTQSPAILSVSPGERVSFSCRASQSIGTSIHWYQQRTNGSPRLLIKFASESISGIPSRFSGSGSGTDFTLNINSVESEDIADYYCQQSNFWPFTFGSGTKLEVK

>  <Observed Value>
0.13 µg/mL

$$$$
>  <Binder>
CHG1-M-MIA-10F3 (antibody, human IgG1, V domains shown, the VH entry ends with ASTK) VH: QVQLQQSAAELARPGASVKMSCKASGYTFTSYTMHWVKQRPGQGLEWIGYINPSSGYTEYNQKFKDKTTLTVDKSSTTSYMQLSSLTSDNSAVYYCARGGDWDVDWFVYWGQGTLVTVSA VL: QIVLTQSPAIMSASPGEKVTITCSASSSISYMHWFQQKPGTSPKLWIYSTSKLASGVPARFSGSGSGTSHSLTISRMEAEDAATYYCQHRSTYPFTFGSGTKLEIK

>  <Observed Value>
0.17 µg/mL

$$$$

**Q:** Name the reported EC50 value associated with the binder CHG1-M-MIA-6E4 (antibody, V domains shown, also called chimeric anti-MICA 6E4) VH: EVQLVESGGALVKPGGSLKLSCAASGFTFSYYAMSWVRQTPEKRLEWVATISRGGNYIYYTDSVKGRFTISRDNAKNTLYLQMTSLRSEDTAMFYCASISDYDGAWLAYWGQGTTLTVSS VL: DVLMTQTPLSLPVSLGDQASISCRSSQSIIHTNGNTYLEWYLQKPGQSPKLLIYKISNRFSGVPDRFSGSGSGTDFTLKISRVEAEDLGVYYCFQGSHVPWTFGGGTKLEIKR
**A:** 2.67 µg/mL

Value source: patent US20200299380A1
